System: Enterococcus faecium
Assay: Antibacterial activity against vancomycin-resistant Enterococcus faecium isolate 820
Format: functional

| Compound | Measurement Qualifier | MIC [µM] |
| --- | --- | --- |
| N=C(N)NCCCC[C@@H](NC(=O)CCCOc1ccc2ccccc2c1-c1c(OCCCC(=O)N[C@H](CCCCNC(=N)N)C(=O)OCc2ccccc2)ccc2ccccc12)C(=O)OCc1ccccc1 | = | 59 |
| N=C(N)NCCC[C@@H](NC(=O)CCCOc1ccc2ccccc2c1-c1c(OCCCC(=O)N[C@H](CCCNC(=N)N)C(=O)NCc2ccccc2)ccc2ccccc12)C(=O)NCc1ccccc1 | = | 122 |
| N=C(N)NCCC[C@@H](NC(=O)CCCOc1ccc2ccccc2c1-c1c(OCCCC(=O)N[C@H](CCCNC(=N)N)C(=O)OCc2ccccc2)ccc2ccccc12)C(=O)OCc1ccccc1 (stereo in doubt; 21) | = | 31 |
| N=C(N)NCCCC[C@@H](NC(=O)CCCOc1ccc2ccccc2c1-c1c(OCCCC(=O)N[C@H](CCCCNC(=N)N)C(=O)OCc2cccc3ccccc23)ccc2ccccc12)C(=O)OCc1cccc2ccccc12 | = | 54 |
| NCCCC[C@@H](NC(=O)CCCOc1ccc2ccccc2c1-c1c(OCCCC(=O)N[C@H](CCCCN)C(=O)OCc2ccccc2)ccc2ccccc12)C(=O)OCc1ccccc1 | = | 65 |
| CN[C@H](CC(C)C)C(=O)N[C@H]1C(=O)N[C@@H](CC(N)=O)C(=O)N[C@H]2C(=O)N[C@H]3C(=O)N[C@H](C(=O)N[C@H](C(=O)O)c4cc(O)cc(O)c4-c4cc3ccc4O)[C@H](O)c3ccc(c(Cl)c3)Oc3cc2cc(c3O[C@@H]2O[C@H](CO)[C@@H](O)[C@H](O)[C@H]2O[C@H]2C[C@](C)(N)[C@H](O)[C@H](C)O2)Oc2ccc(cc2Cl)[C@H]1O | > | 86 |
| COC(=O)[C@@H](CCCNC(=N)N)NC(=O)CCCOc1ccc2ccccc2c1-c1c(OCCCC(=O)N[C@H](CCCNC(=N)N)C(=O)OC)ccc2ccccc12 | > | 143 |
| NCCCC[C@@H](NC(=O)CCCOc1ccc2ccccc2c1-c1c(OCCCC(=O)N[C@H](CCCCN)C(=O)OCc2ccccn2)ccc2ccccc12)C(=O)OCc1ccccn1 | > | 129 |
| N=C(N)NCCC[C@@H](NC(=O)CCCOc1ccc2ccccc2c1-c1c(OCCCC(=O)N[C@H](CCCNC(=N)N)C(=O)OCc2ccccn2)ccc2ccccc12)C(=O)OCc1ccccn1 | > | 122 |
| NCCCC[C@@H](NC(=O)CCCOc1ccc2ccccc2c1-c1c(OCCCC(=O)N[C@H](CCCCN)C(=O)OCc2cccc3ccccc23)ccc2ccccc12)C(=O)OCc1cccc2ccccc12 | = | 59 |
